# target-entity: T1, A56-C-His (recombinant protein A56 with C-terminal His tag, produced in HEK293F cells) (vaccinia virus, UniProt P08714 17-279)
# T1 construct: also called UTTA-C-His; UTTA
# T1 chain: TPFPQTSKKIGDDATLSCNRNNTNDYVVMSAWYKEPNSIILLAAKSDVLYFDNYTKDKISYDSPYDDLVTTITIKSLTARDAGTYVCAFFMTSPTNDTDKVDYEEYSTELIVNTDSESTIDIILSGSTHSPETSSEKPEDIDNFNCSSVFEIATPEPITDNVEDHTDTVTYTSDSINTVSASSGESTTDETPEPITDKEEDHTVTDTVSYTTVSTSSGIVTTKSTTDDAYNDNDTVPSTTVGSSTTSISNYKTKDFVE
measure: kon (M⁻¹ s⁻¹)
All answers are understood in M⁻¹ s⁻¹, so give the number only.

Previously resolved entries follow.
| binder | kon [M⁻¹ s⁻¹] |
| --- | --- |
| anti-A56 antibody Ab18 (antibody, V domains shown, also called SA2043; A56-02C06) VH: QVQLVESGGGLVQPGKSLRLSCAASGFTFSTYGMTWVRQAPGKGLEWVSGISGGGSSTNYADSVKGRFIISRDNSNNTLYLQMNSLRAEDTAVYYCARWGVMLSFDYWGQGTPVTVSS VL: DIQMTQSPSTLPASVGDRVTITCRASYSVSPWLAWYQQKPGKAPKLLIYKASTLESGVPSRFSGSGSGTEFTLTISSLQPDDFATYYCQQFNSYMMYTFGQGTKLEIK | 100000 |
| anti-A56 antibody Ab19 (antibody, V domains shown, also called SA2044; A56-02C07) VH: QVQLVESGAEVRRPGSSVKVSCKTSGVTFSGYVLSWVRQAPGHGLEWMGRIIPLIDVENYAREFQGRMKITADKSTNTVYMELNNLRSEDTAVYYCAKSVVRGLDYYYYGFDVWGQGTTVTVSS VL: SYELTQPPSLSVAPGKTARITCGGNNIGSKSVHWYQQKPGQAPRLVTYYDGNRPSGIPERFSGSNSGNTATLIISRVEAGDEADYYCQVWDSSSDQGVFGTGTKVTVL | 56400 |
| anti-A56 antibody Ab13 (antibody, V domains shown, also called SA2038; A56-02A02) VH: QMQLVESGAEVKKTGSSVKVSCKASGDTLTYRFLHWVRQAPGQAPEWMGWITPFNDNTNYAQKFQDRVTITRDRSMSTAYMELSSLRSEDTAVYYCATGGGNNYYGMEVWGQGTPITVSS VL: SYELTQPLSLSVSPGQTASITCSGDKLGDKFTSWYQQQPGQSPVLVIYQDAKRPSGIPERFSGSNSGSTATLTISGTQSMDEADYYCQAWDSSSVVFGGGTKLTVL | 112000 |

Enquiry: Fill blank: measured kon of the binder anti-A56 antibody Ab16 (antibody, V domains shown, also called SA2041; A56-02B08) VH: QVQLQQSGPGLVKPSQTLSLTCAISGDSVSSNSAAWNWIRQSPSRGLEWLGRTYYRSKWYNDYAVSVKSRITINPDTSKNQFSLQLNSVTAVDTAVYYCAKSYAGPISYYYYGLDVWGQGTTVTVSS VL: QSALTQPASVSGSPGQSVTISCTGTSSDIGRYNLVSWYQQHPGKAPKLMIYGGSKRPSGVSNRFSGSNSDNTASLTISGLRAEDEADYYCSSYASSSTPYVFGTGTKVTVL is ____.
Return: 246000
